Record form. Attribute: Kd. Fill in for each entry.
Biological target: T1, hMED25 ACID (389-543) (human, UniProt Q71SY5 389-543)
T1 sequence (looked up): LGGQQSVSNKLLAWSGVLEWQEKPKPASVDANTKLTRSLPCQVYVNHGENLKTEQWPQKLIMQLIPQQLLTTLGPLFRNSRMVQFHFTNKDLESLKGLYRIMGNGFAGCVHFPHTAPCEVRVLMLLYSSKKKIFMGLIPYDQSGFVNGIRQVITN
Test: ITC
Answers are plain numbers, in nM.

BINDER	MEASUREMENT_UNIT	TEST_VALUE
NS1 Y125A (natural protein, human respiratory syncytial virus (hRSV), UniProt P0DOE9 1-139, looked up) MGSNSLSMIKVRLQNLFDNDEVALLKITCYTDKLIHLTNALAKAVIHTIKLNGIVFVHVITSSDICPNNNIVVKSNFTTMPVLQNGGYIWEMMELTHCSQPNGLLDDNCEIKFSKKLSDSTMTNAMNQLSELLGFDLNP	nM	182
NS1 N85A (natural protein, human respiratory syncytial virus (hRSV), UniProt P0DOE9 1-139, looked up) MGSNSLSMIKVRLQNLFDNDEVALLKITCYTDKLIHLTNALAKAVIHTIKLNGIVFVHVITSSDICPNNNIVVKSNFTTMPVLQAGGYIWEMMELTHCSQPNGLLDDNCEIKFSKKLSDSTMTNYMNQLSELLGFDLNP	nM	41
hRSV NS1 (1-139) (natural protein, human respiratory syncytial virus (hRSV), UniProt P0DOE9 1-139, looked up) MGSNSLSMIKVRLQNLFDNDEVALLKITCYTDKLIHLTNALAKAVIHTIKLNGIVFVHVITSSDICPNNNIVVKSNFTTMPVLQNGGYIWEMMELTHCSQPNGLLDDNCEIKFSKKLSDSTMTNYMNQLSELLGFDLNP	nM	41

Q) Dear colleague, I am looking for the recorded Kd of the following binder: NS1 E110A (natural protein, human respiratory syncytial virus (hRSV), UniProt P0DOE9 1-139, looked up) MGSNSLSMIKVRLQNLFDNDEVALLKITCYTDKLIHLTNALAKAVIHTIKLNGIVFVHVITSSDICPNNNIVVKSNFTTMPVLQNGGYIWEMMELTHCSQPNGLLDDNCAIKFSKKLSDSTMTNYMNQLSELLGFDLNP
A) 1740
